# test-summary: Lipophilic efficiency (LipE = pEC50 − cLogP) and cLogP
# condition-context: pEC50 - cLogP; Table 14
Measured LipE, listed per entry.

[
  {
    "compound": "C=C(C)Cn1c(SCC(=O)c2ccccc2)nc2sc3c(c2c1=O)CCCC3",
    "LipE": "−0.01"
  },
  {
    "compound": "C=C(C)Cn1c(SCC(=O)c2cccs2)nc2sc3c(c2c1=O)CCCC3",
    "LipE": 0.73
  },
  {
    "compound": "O=C(CSc1nc2sccc2c(=O)n1C1CC1)c1cccs1 [Formula 19b]",
    "LipE": 2.89
  },
  {
    "compound": "CCCn1c(SCC(=O)c2cccs2)nc2sc3c(c2c1=O)CCCC3",
    "LipE": 1.06
  },
  {
    "compound": "CN(C)c1ccccc1CN1CCCN(Cc2ccccc2N(C)C)C1c1ccncc1 [GANT-61, reference compound]",
    "LipE": 1.34
  },
  {
    "compound": "C=C(C)Cn1c(SCC(=O)N2CCCCC2C)nc2sc3c(c2c1=O)CCCC3 (centres unmarked)",
    "LipE": 0.94
  },
  {
    "compound": "Cc1c(C(=O)Nc2ccc(N3C[C@@H](C)O[C@@H](C)C3)nc2)cccc1-c1ccc(OC(F)(F)F)cc1 [Sonidegib, reference compound]",
    "LipE": 3.02
  },
  {
    "compound": "O=C(CSc1nc2sccc2c(=O)n1C1CC1)c1ccccc1 [Formula 19c]",
    "LipE": 3.84
  },
  {
    "compound": "O=c1c2ccsc2nc(SCC(O)c2ccccc2)n1C1CC1 (centres unmarked) [Formula 20a]",
    "LipE": 3.41
  },
  {
    "compound": "O=C(CSc1nc2sc3c(c2c(=O)n1C1CC1)CCCC3)c1cccs1",
    "LipE": 1.40
  },
  {
    "compound": "O=C(CSc1nc2ccccc2c(=O)n1C1CC1)c1cccs1 [Formula 14b]",
    "LipE": 2.78
  }
]
